Entries and their # I/# T (impaired/tested)
system: male Swiss-Webster mice; assay: Rotarod impairment test before MES testing; assay type: in vivo, mouse; details: 300 mg/kg p.o., 4 hours

"CC(C)C(C)(C)C(N)=O" yielded # I/# T (impaired/tested) of 0/4

"C[C@H](C(N)=O)C(C)(C)C" yielded # I/# T (impaired/tested) of 3/4

"CC1(C)C[C@@H]1C(N)=O" yielded # I/# T (impaired/tested) of 0/4

CC(C)[C@@H](C)C(N)=O [AA (S- enantiomer)] yielded # I/# T (impaired/tested) of 0/4

====

tested on: male Swiss-Webster mice; test: Rotarod impairment test before MES testing; assay type: in vivo, mouse; details: 300 mg/kg p.o., 0.5 hours
Metric Name: # I/# T (impaired/tested)

For orientation, consider the following solved cases.
CC1(C)C[C@@H]1C(N)=O ... 1/8
CC(C)[C@@H](C)C(N)=O [AA (S- enantiomer)] ... 1/4
CC(C)[C@H](C)C(N)=O [AA (R- enantiomer)] ... 3/4
CC(C)C(C)(C)C(N)=O ... 2/4

"C[C@H](C(N)=O)C(C)(C)C" yielded # I/# T (impaired/tested) of 3/4

====

test: Rotarod test of motor impairment (toxicity) in the Frings study; assay type: in vivo; conditions: Frings, mouse, in vivo, po, rotarod, Table 4
Metric Name: TD50 at 15 min

CC1(C)C[C@@H]1C(N)=O [Compound S] yielded TD50 at 15 min of > 600 mg/kg

====

test system: Frings mice; assay: Rotarod test of motor impairment (toxicity) in the Frings study; assay type: in vivo; details: Frings, mouse, in vivo, po
Entries and their Therapeutic Index

For orientation, consider the following solved cases.
C[C@H]1CC[C@H](C(N)=O)CC1 [Compound W, trans-4-methylcyclohexanecarboxamide] ... >4-fold
CC(C)[C@H](C)C(N)=O [AA (R- enantiomer)] ... >4-fold
CC1CCC(CC(N)=O)CC1 (stereo not shown) [Compound X, 2-(4-methylcyclohexyl)acetamide] ... >6-fold

CC(C)[C@@H](C)C(N)=O [AA (S- enantiomer)] yielded Therapeutic Index of >4-fold
